Data origin, for the record: patent US20160194358A1

Target: E. coli SPase (Escherichia coli)
Construct: Full length His-tagged E. coli SPase proteins; His; made in house; host or cells: E. coli BL21(DE3)
Sequence (P00803 whole entry): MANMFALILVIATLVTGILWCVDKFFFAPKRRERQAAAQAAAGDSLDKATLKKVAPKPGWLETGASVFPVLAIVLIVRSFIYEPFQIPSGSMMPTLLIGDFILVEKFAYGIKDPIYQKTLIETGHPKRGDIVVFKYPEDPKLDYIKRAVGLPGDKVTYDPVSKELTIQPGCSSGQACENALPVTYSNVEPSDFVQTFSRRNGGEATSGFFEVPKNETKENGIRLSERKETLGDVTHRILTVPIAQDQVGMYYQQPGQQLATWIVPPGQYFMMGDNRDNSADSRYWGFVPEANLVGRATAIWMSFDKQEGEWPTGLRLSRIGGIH
Experiment: Biochemical SPase activity assay, fluorogenic peptide substrate, E. coli enzyme
Settings: 20 μM substrate, 10 minutes preincubation, read-out: IC 50 (nM) E. coli
*1 amine or outer side, *2 acyl side, *3 side chain or, on linkers, in order; H or OH if unused. Where a SMILES comes first, the peptide text is derived from it. [ ]: non-standard residue; d: D form. The star is where a group is joined. boroAla((+)-pinanediol) = C[C@H](N*)B1O[C@@H]2C[C@@H]3C[C@@H](C3(C)C)[C@]2(C)O1; Benzoyl(4-(4-Cl-Ph)) = O=C(c1ccc(-c2ccc(Cl)cc2)cc1)*; X16 = O=S(=O)(c1ccc(-c2ccc(Cl)cc2)cc1)*; X11 = CCCCc1ccc(-c2nc(C(=O)*)cs2)cc1; X14 = O=C(c1ccc(Oc2ccc(Cl)cc2)cc1)*; X1 = C[C@H](N[*:1])C(=O)C(=O)[*:2]; X2 = C[C@H](N*)C(=O)c1ncco1; Dab = NCC[C@H](N)C(=O)O; Dap = NC[C@H](N)C(=O)O; NHcPr = C1CC1N*
readout: log10 of IC50 (log10 of the value in nM)
Response schema: value (number) is log10 of IC50 in units of nM.

Before answering, review these 5 worked examples.
>  <compound>
C[C@H](NC(=O)[C@@H](NC(=O)[C@H](CN)NC(=O)c1ccc(-c2ccc(Cl)cc2)cc1)[C@@H](C)O)C(=O)N[C@@H](CCCCN)C(=O)N[C@@H](C)C(=O)C(=O)NC1CC1 [Compound 109] ({Benzoyl(4-(4-Cl-Ph))}-[Dap]TAK[X1]-NHcPr)

>  <log10 of IC50>
2.91

$$$$
>  <compound>
C[C@H](NC(=O)[C@H](CCCCN)NC(=O)[C@H](C)NC(=O)[C@@H](NC(=O)[C@H](CN)NC(=O)c1ccc(Oc2ccc(Cl)cc2)cc1)[C@@H](C)O)B1O[C@@H]2C[C@@H]3C[C@@H](C3(C)C)[C@]2(C)O1 [Compound 129] (X14-[Dap]TAK-{boroAla((+)-pinanediol)})

>  <log10 of IC50>
0.56

$$$$
>  <compound>
CCCCc1ccc(-c2nc(C(=O)N[C@@H](CCN)C(=O)N[C@H](C(=O)N[C@@H](C)C(=O)N[C@@H](CCCCN)C(=O)N[C@@H](C)B3O[C@@H]4C[C@@H]5C[C@@H](C5(C)C)[C@]4(C)O3)[C@@H](C)O)cs2)cc1 [Compound 121] (X11-[Dab]TAK-{boroAla((+)-pinanediol)})

>  <log10 of IC50>
1.73

$$$$
>  <compound>
C[C@H](NC(=O)[C@H](CCCCN)NC(=O)[C@H](C)NC(=O)[C@@H](NC(=O)[C@H](CCCCN)NS(=O)(=O)c1ccc(-c2ccc(Cl)cc2)cc1)[C@@H](C)O)B1O[C@@H]2C[C@@H]3C[C@@H](C3(C)C)[C@]2(C)O1 [Compound 128] (X16-KTAK-{boroAla((+)-pinanediol)})

>  <log10 of IC50>
3.08

$$$$
>  <compound>
C[C@H](NC(=O)[C@@H](NC(=O)[C@H](CN)NC(=O)c1ccc(-c2ccc(Cl)cc2)cc1)[C@@H](C)O)C(=O)N[C@@H](CCCCN)C(=O)N[C@@H](C)C(=O)c1ncco1 [Compound 212] ({Benzoyl(4-(4-Cl-Ph))}-[Dap]TAK-X2)

>  <log10 of IC50>
1.53

$$$$

Record CCCCc1ccc(-c2ccc(C(=O)N[C@@H](CCN)C(=O)N[C@H](C(=O)N[C@@H](C)C(=O)N[C@@H](CCCCN)C(=O)N[C@@H](C)C(=O)C3CO3)[C@@H](C)O)cc2)cc1 (single isomer, unassigned) [Compound 201 P2] : what is its log10 of IC50 with E. coli SPase (Escherichia coli)?
2.18
